Molecular target: type 2 human 5α-reductase (HRED2) (Homo sapiens)
Sequence (P31213 whole entry): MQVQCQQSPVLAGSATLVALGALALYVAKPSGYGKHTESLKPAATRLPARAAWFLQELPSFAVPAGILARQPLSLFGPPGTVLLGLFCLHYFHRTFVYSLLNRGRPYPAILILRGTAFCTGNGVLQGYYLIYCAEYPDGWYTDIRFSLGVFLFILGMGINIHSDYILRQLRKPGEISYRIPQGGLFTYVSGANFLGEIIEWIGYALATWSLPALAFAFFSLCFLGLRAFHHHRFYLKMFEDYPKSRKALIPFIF
Assay: Cell free assay of 5α-reductase, microsomes of rat 1A cells expressing type 2 isoenzyme (HRED2);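 also: labeled testosterone and its product dihydrotestosterone measured in microsomal reaction extracts via thin layer chromatography plus radioanalytic scanning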
Format: biochemical
Parameters: expressed in transfected cells; host or cells: rat 1A cells infected with pMV7 retrovirus; microsomes
Settings: 100 μM; cell free assay; Table 5
value kind: HRED2 % Inhibition @ 100 μM

A selection of reference data follows.
{"compound": "CN(C)c1ccc(C(=O)OC2Cc3c(O)cc(O)cc3OC2c2cc(O)c(O)c(O)c2)cc1 (stereo not shown) [HZIV 92]", "recorded measurement": "45%"}
{"compound": "O=C(O)OC1Cc2c(O)cc(O)cc2OC1c1cc(O)c(O)c(O)c1 (stereo not shown) [HZIV 109]", "recorded measurement": "0%"}
{"compound": "O=C(OC1Cc2c(O)cc(O)cc2OC1c1cc(O)c(O)c(O)c1)c1ccncc1 (stereo not shown) [HZIV 107]", "recorded measurement": "39%"}

Q: Output measured HRED2 % Inhibition @ 100 μM for this item: CC(=O)OC1Cc2c(O)cc(O)cc2OC1c1cc(O)c(O)c(O)c1 (stereo not shown) [HZIV 145]
A: 8%

Q: Output measured HRED2 % Inhibition @ 100 μM for this item: COc1cc(C(=O)OC2Cc3c(O)cc(O)cc3OC2c2cc(O)c(O)c(O)c2)cc(OC)c1O (stereo not shown) [HZIV 75]
A: 21%

Q: Output measured HRED2 % Inhibition @ 100 μM for this item: CCCCCC=CCC=CCC=CCCCCC(=O)OC1Cc2c(O)cc(O)cc2OC1c1cc(O)c(O)c(O)c1 (stereo not shown) [HZIV 142]
A: 93%

Q: Output measured HRED2 % Inhibition @ 100 μM for this item: O=C(C=Cc1cc(O)c(O)c(O)c1)OC1Cc2c(O)cc(O)cc2OC1c1cc(O)c(O)c(O)c1 (stereo not shown) [HZIV 134]
A: 94%
